Listed next: entries and their corresponding z-score.
Assay: DUSP6 inhibitors restoring Erk phosphorylation by chemical complementation, primary imaging in DUSP6-transfected HeLa (AID 609)
Details: HeLa MKP-3 transfected, phospho-Erk imaging KS statistic; measured here: nuclear pErk red intensity z-score; at 10 µM; stronger effect = higher value; cells stimulated with TPA for 15 min
Enter a number only.

In: # z-score lookup, item Cc1nnc2n(-c3ccccc3)c(=O)c3c4c(sc3n12)COC(C(C)C)C4 (stereo unspecified)
Out: -0.55

In: Form field: reported z-score of COc1ccccc1N(O)C1CC(=O)N(c2ccc(Br)cc2)C1=O (stereo unspecified)
Out: 0.319

In: Reported z-score for COC(=O)CN(c1nc(C)c(Br)c(OC)n1)S(=O)(=O)c1ccc(C)cc1 : what is it?
Out: 0.387

In: Can you look up the measured z-score of CC(=O)Oc1cccc2c1C(=O)c1c(OC(C)=O)cc(C(=O)O)cc1C2=O for me?
Out: -0.102

In: Can you share its z-score? I mean this compound: Cc1cc2c(c(=O)o1)C(Cc1ccccc1)C(C#N)=C(N)O2 (stereo unspecified)
Out: 1.32

In: // z-score lookup, key: CCOC(=O)c1n[nH]c2ccccc12
Out: -1.01

In: # query: z-score of entry Cc1cn([C@H]2C[C@H](N=[N+]=[N-])[C@@H](CO)O2)c(=O)[nH]c1=O
Out: 2.26

In: Name the recorded z-score for COc1ccccc1Cn1c2nc3ccccc3nc2c2c(=O)n(CC(C)C)cnc21 .
Out: -0.477
